tested on: rat chronic carcinogenicity bioassay, TD50; assay: DSSTox (CPDBAS) Carcinogenic Potency Database Summary Rat Bioassay Results; conditions: TD50_Rat_Note: TD50 is harmonic mean of more than one positive test; TargetSites_Rat_Female: clitoral gland; ear Zymbals gland; mammary gland; oral cavity; stomach; stronger effect = lower value
assayMetric: Potency

Item: `ClCC(Cl)CCl` | Potency: 1.35 mg/kg/day

----------
test system: rat chronic carcinogenicity bioassay, TD50; assay: DSSTox (CPDBAS) Carcinogenic Potency Database Summary Rat Bioassay Results; settings: TD50_Rat_Note: TD50 is harmonic mean of more than one positive test; greater than ten-fold variation among TD50 values for positive res; TargetSites_Rat_Female: esophagus; liver; oral cavity; stomach; stronger effect = lower value
assayMetric: Potency

Item: `CCN(CC)N=O` | Potency: 0.0265 mg/kg/day

Taken from PubChem BioAssay AID1208.
